For each of the compounds below, state its pIC50.
Biological target: USP1 (construct USP1 (I-785, GG670, 671AA)/UAF1 (I-677)-Flag) (Homo sapiens (Human), UniProt O94782, G670A/G671A)
Sequence (O94782 whole entry G670A/G671A): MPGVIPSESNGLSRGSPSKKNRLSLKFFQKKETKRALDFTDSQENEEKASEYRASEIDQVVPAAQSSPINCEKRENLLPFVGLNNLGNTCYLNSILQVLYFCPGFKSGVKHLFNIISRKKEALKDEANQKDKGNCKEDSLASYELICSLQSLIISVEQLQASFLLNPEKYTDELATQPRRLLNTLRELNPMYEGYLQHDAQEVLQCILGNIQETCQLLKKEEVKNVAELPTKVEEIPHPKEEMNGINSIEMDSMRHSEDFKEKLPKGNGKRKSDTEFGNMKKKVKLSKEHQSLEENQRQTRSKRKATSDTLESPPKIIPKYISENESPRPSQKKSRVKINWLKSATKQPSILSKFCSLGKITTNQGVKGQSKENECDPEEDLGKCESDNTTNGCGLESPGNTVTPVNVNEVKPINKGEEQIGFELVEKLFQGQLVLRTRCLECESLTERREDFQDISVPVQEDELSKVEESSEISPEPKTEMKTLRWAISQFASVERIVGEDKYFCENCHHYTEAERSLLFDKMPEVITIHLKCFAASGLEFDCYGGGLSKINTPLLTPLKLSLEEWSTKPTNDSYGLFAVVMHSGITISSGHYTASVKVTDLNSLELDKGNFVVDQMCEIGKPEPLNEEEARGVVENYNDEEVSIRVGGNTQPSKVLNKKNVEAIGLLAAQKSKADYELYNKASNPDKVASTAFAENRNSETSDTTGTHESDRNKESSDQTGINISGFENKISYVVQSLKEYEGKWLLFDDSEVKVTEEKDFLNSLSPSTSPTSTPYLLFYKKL
Sequence (Q8TAF3 whole entry partner): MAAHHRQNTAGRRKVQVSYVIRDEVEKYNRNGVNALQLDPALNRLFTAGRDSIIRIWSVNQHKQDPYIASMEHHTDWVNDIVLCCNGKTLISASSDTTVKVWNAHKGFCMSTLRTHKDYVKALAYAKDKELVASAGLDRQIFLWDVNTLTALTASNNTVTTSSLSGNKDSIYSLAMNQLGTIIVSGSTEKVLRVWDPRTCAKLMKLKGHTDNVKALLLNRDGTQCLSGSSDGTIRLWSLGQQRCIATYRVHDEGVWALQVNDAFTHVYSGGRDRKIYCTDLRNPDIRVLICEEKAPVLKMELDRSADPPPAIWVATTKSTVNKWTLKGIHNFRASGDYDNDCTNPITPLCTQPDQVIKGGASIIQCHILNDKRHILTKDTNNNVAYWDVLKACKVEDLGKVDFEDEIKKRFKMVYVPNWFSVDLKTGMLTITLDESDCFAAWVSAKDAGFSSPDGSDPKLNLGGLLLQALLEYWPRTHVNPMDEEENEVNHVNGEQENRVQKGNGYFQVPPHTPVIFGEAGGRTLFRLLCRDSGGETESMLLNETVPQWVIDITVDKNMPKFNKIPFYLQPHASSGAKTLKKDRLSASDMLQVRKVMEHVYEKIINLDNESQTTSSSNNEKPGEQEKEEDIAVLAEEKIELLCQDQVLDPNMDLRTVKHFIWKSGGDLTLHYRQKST
Assay: Ubiquitin-Rhodamine 110 assay for USP1 activity
Settings: USP1/UAF1 25 pM, Ub-Rh110 25 nM, 30 min preincubation
pIC50: −log10 of the molar value.

Hi, could you look up pIC50 for each item in my list?
1. CC(C)c1ncccc1-c1ncc2c(n1)n(Cc1ccc(-c3nc(C(F)(F)F)cn3C3CC3)cc1)c(=O)n2C [Compound I-114]
2. Cn1cc(C(F)(F)F)nc1-c1ccc(Cn2c(=O)[nH]c3cnc(-c4cccnc4N4CCC4)nc32)cc1 [Compound I-335]
3. COCCOc1ccccc1-c1ncc2[nH]c(=O)n(Cc3ccc(-n4cccn4)cc3)c2n1 [Compound I-20]
4. CC(C)c1cccc(F)c1-c1ncc2[nH]c(=O)n(Cc3ccc(-n4cccn4)cc3)c2n1 [Compound I-96]
5. Cc1nc(-c2ccc(Cn3c(=O)n(C)c4cnc(-c5ccccc5C(C)C)nc43)cc2)nn1C [Compound I-279]

a:
["> 7.30", "6.70 to 7.30", "5.70 to 6.70", "> 7.30", "> 7.30"]

Hi, could you look up pIC50 for each item in my list?
1. CC(C)c1ccccc1-c1ncc2c(n1)n(Cc1ccc(-c3ncsc3CO)cc1)c(=O)n2C [Compound I-305]
2. CC(C)COc1ncccc1-c1ncc2[nH]c(=O)n(Cc3ccc(-n4nccn4)cc3)c2n1 [Compound I-5]

a:
1. > 7.30
2. < 5.70
